Would you mind telling me the reported microsomal CLint at 1 uM of each entry?
# assay: Metabolic stability in human hepatic microsome
# Assay type: in vitro ADME
# run-conditions: microsomes, pH 7.4; human hepatic microsome, NADPH(+); read-out: CL NADPH(+)
Starred links: 1 amine or outer side, 2 acyl side, 3 side chain; linkers in the order of their positions; H or OH if unused. Positions of bridges follow the written chain, without caps; N, C: chain ends. Non-standard residues stand in square brackets, D forms with d. Residues, ends and D or L forms follow the SMILES beside them. *: point of attachment. NMeF = CN[C@@H](Cc1ccccc1)C(=O)O; NMeβAla = CN(CCC(=O)[*:2])[*:1]; NMeL = CN[C@@H](CC(C)C)C(=O)O; NMeA = CN[C@@H](C)C(=O)O; Piperidide = C1CCN(*)CC1; dNMeA = CN[C@H](C)C(=O)O

# lookup: microsomal CLint at 1 uM of CC(C)C[C@@H]1NC(=O)[C@H](Cc2ccccc2)N(C)C(=O)CCN(C)C(=O)C[C@@H](C(=O)N2CCCCC2)NC(=O)[C@H](CC(C)C)N(C)C(=O)[C@H](C)N(C)C(=O)[C@H]([C@@H](C)O)NC(=O)[C@H](CC(C)C)N(C)C(=O)[C@H](Cc2ccccc2)N(C)C1=O [DP-268] ([NMeβAla][NMeF]L[NMeF][NMeL]T[NMeA][NMeL]D-Piperidide; lactam N-9)
508 µL/min/mg

# lookup: microsomal CLint at 1 uM of CC(C)C[C@@H]1NC(=O)[C@H]([C@@H](C)O)NC(=O)[C@H](Cc2ccccc2)N(C)C(=O)[C@H](CC(C)C)N(C)C(=O)[C@H](Cc2ccccc2)N(C)C(=O)[C@H](C)N(C)C(=O)[C@H](C)N(C)C(=O)[C@H](CC(C)C)N(C)C(=O)[C@@H](C)NC(=O)C[C@@H](C(=O)N2CCCCC2)NC1=O [DP-169] ([dA][NMeL][NMeA][NMeA][NMeF][NMeL][NMeF]TLD-Piperidide; lactam N-10)
43 µL/min/mg

# lookup: microsomal CLint at 1 uM of CC(C)C[C@H]1C(=O)N[C@@H](C)C(=O)N(C)[C@@H](Cc2ccccc2)C(=O)N(C)[C@@H](C)C(=O)N(C)[C@@H](Cc2ccccc2)C(=O)N[C@@H]([C@@H](C)O)C(=O)N(C)[C@@H](C)C(=O)N[C@H](C(=O)N2CCCCC2)CC(=O)N(C)[C@H](C)C(=O)N(C)[C@@H](C)C(=O)N1C [DP-341] ([dNMeA][NMeA][NMeL]A[NMeF][NMeA][NMeF]T[NMeA]D-Piperidide; lactam N-10)
69 µL/min/mg

* * *

# assay: PAMPA (parallel artificial membrane permeability assay)
# Assay type: in vitro ADME
# run-conditions: PAMPA, pH 6.5
Positions of bridges follow the written chain, without caps; N, C: chain ends. Non-standard residues stand in square brackets, D forms with d. Residues, ends and D or L forms follow the SMILES beside them. *: point of attachment. NMeF = CN[C@@H](Cc1ccccc1)C(=O)O; NMeI = CC[C@H](C)[C@H](NC)C(=O)O; NMeL = CN[C@@H](CC(C)C)C(=O)O; NMeA = CN[C@@H](C)C(=O)O; Piperidide = C1CCN(*)CC1; tBu = CC(C)(C)*
result-type: Papp at 18 hours, 50 µM (×10⁻⁶ cm/s)
Lab book: enter the figure in ×10⁻⁶ cm/s, no units written.

# lookup: Papp at 18 hours, 50 µM of CC[C@H](C)[C@H]1C(=O)N(C)[C@@H](CC(C)C)C(=O)N[C@H](C(=O)N2CCCCC2)CC(=O)N(C)[C@@H](C)C(=O)N(C)[C@@H](CC(C)C)C(=O)N[C@@H](CC(C)C)C(=O)N(C)[C@@H](Cc2ccccc2)C(=O)N[C@@H](COC(C)(C)C)C(=O)N(C)[C@@H](Cc2ccccc2)C(=O)N[C@@H]([C@@H](C)O)C(=O)N(C)[C@@H](C)C(=O)N1C [DP-100] ([NMeA][NMeL]L[NMeF]S(tBu)[NMeF]T[NMeA][NMeI][NMeL]D-Piperidide; lactam N-11)
1.7
